# Measured on: 5-hydroxytryptamine receptor 1A (Homo sapiens) (UniProt P08908)
# Measurement notes: Antagonist activity at 5HT1A receptor expressed in CHO cells assessed as inhibition of 5-HT-stimulated [35S]GTPgamma binding relative to control
# Assay type: functional, cell-based
Activity calls are given as the source filed them. No cut-off for these calls is given here.
Quantity measured: Imax

* C=CCOc1cccc2c1-c1cccc3c1[C@@H](C2)N(C)CC3 | 100%
* C[C@H]1Cc2ccc3c(c2O1)-c1cccc2c1[C@@H](C3)N(C)CC2 (relative stereo) | 100%
* CC1Cc2ccc3c(c2O1)-c1cccc2c1[C@@H](C3)N(C)CC2 (mixture of isomers) | 100%
* NCCc1c[nH]c2ccc(O)cc12 [SEROTONIN] | inactive
* C[C@@H]1Cc2ccc3c(c2O1)-c1cccc2c1[C@@H](C3)N(C)CC2 (relative stereo) | inactive

---

# Measured on: 5-hydroxytryptamine receptor 1A (Homo sapiens) (UniProt P08908)
# Sequence (whole entry): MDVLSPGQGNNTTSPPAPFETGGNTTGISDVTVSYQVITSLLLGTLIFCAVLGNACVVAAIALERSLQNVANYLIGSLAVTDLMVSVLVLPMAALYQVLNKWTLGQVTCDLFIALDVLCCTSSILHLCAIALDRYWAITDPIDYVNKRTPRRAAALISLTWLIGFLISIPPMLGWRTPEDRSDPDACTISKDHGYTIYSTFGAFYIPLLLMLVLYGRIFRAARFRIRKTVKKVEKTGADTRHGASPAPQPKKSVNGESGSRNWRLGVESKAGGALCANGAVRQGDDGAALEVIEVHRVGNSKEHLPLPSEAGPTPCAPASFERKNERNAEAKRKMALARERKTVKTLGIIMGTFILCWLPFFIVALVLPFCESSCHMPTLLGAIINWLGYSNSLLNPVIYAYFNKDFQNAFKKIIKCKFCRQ
# Measurement notes: Agonist activity at 5HT1A receptor expressed in CHO cells assessed as stimulation of [35S]GTPgamma binding relative to control
# Format: functional, cell-based
Calls of active or inactive are those of the source. The rule behind the calls is not given here.
Quantity measured: Emax

- CC1Cc2ccc3c(c2O1)-c1cccc2c1[C@@H](C3)N(C)CC2 (mixture of isomers): inactive
- C=CCOc1cccc2c1-c1cccc3c1[C@@H](C2)N(C)CC3: 61%
- C[C@H]1Cc2ccc3c(c2O1)-c1cccc2c1[C@@H](C3)N(C)CC2 (relative stereo): inactive
- C#CCOc1cccc2c1-c1cccc3c1[C@@H](C2)N(C)CC3: 73%
- C[C@@H]1Cc2ccc3c(c2O1)-c1cccc2c1[C@@H](C3)N(C)CC2 (relative stereo): 127%

---

# Measured on: 5-hydroxytryptamine receptor 1A (Homo sapiens, UniProt P08908)
# Measurement notes: Agonist activity at 5HT1A receptor expressed in CHO cells assessed as stimulation of [35S]GTPgamma binding
# Type: functional, cell-based
# Particulars: read-out: EC50
The compounds listed here are annotated with their EC50.
Quantity measured: EC50 (nM)

• C=CCOc1cccc2c1-c1cccc3c1[C@@H](C2)N(C)CC3 = 56
• C#CCOc1cccc2c1-c1cccc3c1[C@@H](C2)N(C)CC3 = 180
• C[C@@H]1Cc2ccc3c(c2O1)-c1cccc2c1[C@@H](C3)N(C)CC2 (relative stereo) = 86

---

# Measured on: UniProtKB P08908
# Measurement notes: Displacement of [3H]8-OH-DPAT from 5HT1A receptor expressed in CHO cells by liquid scintillation counting
# Assay type: cell-based
# Particulars: read-out: Ki
pKi: −log10 of the molar value.
Recorded measurements of pKi, one per entry
Quantity measured: pKi

* C#CCOc1cccc2c1-c1cccc3c1[C@@H](C2)N(CCC)CC3 | 7.26
* C[C@@H]1Cc2ccc3c(c2O1)-c1cccc2c1[C@@H](C3)N(C)CC2 (relative stereo) | 8.51
* C[C@H]1Cc2ccc3c(c2O1)-c1cccc2c1[C@@H](C3)N(C)CC2 (relative stereo) | 7.34
* CCCN1CCc2cccc3c2[C@H]1Cc1cccc(O)c1-3 | 7.35
* C=CCOc1cccc2c1-c1cc(OC)cc3c1[C@@H](C2)N(C)CC3 | 7.18
* C=CCc1ccc2c(c1O)-c1cccc3c1[C@@H](C2)N(CCC)CC3 | 6.10
* C=C(C)COc1cccc2c1-c1cccc3c1[C@@H](C2)N(CCC)CC3 | 6.43
* C=CCOc1cccc2c1-c1cccc3c1[C@@H](C2)N(CCC)CC3 | 6.55
* CCCN1CCc2cccc3c2[C@H]1Cc1ccc2c(c1-3)OC(C)C2 (mixture of isomers) | 6.47
* CCCN1CCc2cccc3c2[C@H]1Cc1cccc(OCC=C(C)C)c1-3 | 6.83
* Cc1cc2ccc3c(c2o1)-c1cccc2c1[C@@H](C3)N(C)CC2 | 7.54
* CCCN1CCc2cccc3c2[C@H]1Cc1ccc2c(C)c(C)oc2c1-3 | 6.29
* C=CCc1ccc2c(c1O)-c1cccc3c1[C@@H](C2)N(C)CC3 | 6.87
* CC1Cc2ccc3c(c2O1)-c1cc(O)cc2c1[C@@H](C3)N(C)CC2 (mixture of isomers) | 7.92
* CC#CCOc1cccc2c1-c1cccc3c1[C@@H](C2)N(CCC)CC3 | 6.90
* C/C=C/COc1cccc2c1-c1cccc3c1[C@@H](C2)N(CCC)CC3 | 7.96
* COc1cc2c3c(c1)-c1c(O)cccc1C[C@H]3N(C)CC2 | 6.59
* CN1CCc2cccc3c2[C@H]1Cc1cccc(O)c1-3 | 7.31
* CCCN1CCc2cccc3c2[C@H]1Cc1ccc2cc(C)oc2c1-3 | 6.49
* CCCN1CCc2cccc3c2[C@H]1Cc1ccc2c(c1-3)OC(C)C2C (mixture of isomers) | 7.05
* CC1Cc2ccc3c(c2O1)-c1cccc2c1[C@@H](C3)N(C)CC2 (mixture of isomers) | 8.17
* C=CCc1ccc2c(c1O)-c1cc(OC)cc3c1[C@@H](C2)N(C)CC3 | 6.84
* C=CCOc1cccc2c1-c1cccc3c1[C@@H](C2)N(C)CC3 | 7.92
* C#CCOc1cccc2c1-c1cccc3c1[C@@H](C2)N(C)CC3 | 7.85
* C=CC(C)c1ccc(O)c2c1C[C@@H]1c3c(cccc3-2)CCN1CCC (mixture of isomers) | 6.20
* CCCN1CCc2cccc3c2[C@H]1Cc1ccc2c(c1-3)OC(C)(C)C2 | 6.20
